- TESTED ON: M2 (Muscarinic Cholinergic Rs) (Homo sapiens)
- Sequence (P08172 1-466): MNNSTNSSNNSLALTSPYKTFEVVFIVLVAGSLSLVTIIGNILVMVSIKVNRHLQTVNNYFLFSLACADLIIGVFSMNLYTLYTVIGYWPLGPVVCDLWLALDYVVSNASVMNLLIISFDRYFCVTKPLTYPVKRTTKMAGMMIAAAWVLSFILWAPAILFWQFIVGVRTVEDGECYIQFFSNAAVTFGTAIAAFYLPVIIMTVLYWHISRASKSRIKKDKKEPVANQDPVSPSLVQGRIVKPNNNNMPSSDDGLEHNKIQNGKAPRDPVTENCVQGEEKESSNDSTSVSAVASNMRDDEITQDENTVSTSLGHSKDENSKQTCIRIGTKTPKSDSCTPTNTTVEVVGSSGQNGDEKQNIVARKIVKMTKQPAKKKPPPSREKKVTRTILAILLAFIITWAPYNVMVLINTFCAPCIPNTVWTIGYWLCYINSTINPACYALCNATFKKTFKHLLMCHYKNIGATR
REPORTED METRIC: Ki

Entry O=C(O)c1cc(NC(=O)N(c2ccccc2)c2ccccc2)c2c(Cl)cc(Cl)cc2n1 : Ki on M2 (Muscarinic Cholinergic Rs) (Homo sapiens) = > 10 µM
